Protocol Details: solvent given as SMILES
Experimental Parameters: in CCC(C)C
Reported Endpoint: fluorescence lifetime (ns)

P. CCCCCCCCCCc1cc(-c2cc(CCCCCCCCCC)c(-c3cccs3)s2)sc1-c1cccs1
Q. COc1ccsc1-c1ccc(-c2ccc(-c3sccc3OC)s2)s1
Could you kindly indicate whether P or Q has the higher fluorescence lifetime value? Use the label to indicate which entry you chose.
Q

---

Catalogue of fluorescence lifetime readings, one per entry.
Protocol Details: solvent given as SMILES
Experimental Parameters: in Cc1ccccc1
Provide only the numeric value, understood in ns.

Before answering, review these 3 worked examples.
c1ccc(-c2nc(-c3ccccc3)c(-c3ccccc3)o2)cc1
1.27
c1ccc(-c2nnc(-c3ccc(N4c5ccccc5Oc5ccccc54)cc3)o2)cc1
11
Cc1cc(C)c(B(c2ccc(N(c3ccccc3)c3ccccc3)cc2)c2c(C)cc(C)cc2C)c(C)c1
4

# evaluate next
Which measured fluorescence lifetime value corresponds to N#Cc1c(-n2c3ccc(-c4ccccc4)cc3c3cc(-c4ccccc4)ccc32)c(-n2c3ccccc3c3ccccc32)c(-n2c3ccc(-c4ccccc4)cc3c3cc(-c4ccccc4)ccc32)c(-n2c3ccccc3c3ccccc32)c1-n1c2ccc(-c3ccccc3)cc2c2cc(-c3ccccc3)ccc21 ?
5.2

---

Protocol Details: solvent given as SMILES
Experimental Parameters: in C1COCCO1
Reported Endpoint: fluorescence lifetime (ns)

Before answering, review these 4 worked examples.
Cc1nn(-c2ccccc2)c(C2=NN(c3ccc(Br)cc3)[C@@H](c3ccccc3)[C@@H]2c2ccccc2)c1C#N
5.21
Clc1nc(Nc2ccccc2)nc(Nc2ccc3cc4ccccc4cc3c2)n1
10.3
COC(=O)c1ccc(C#Cc2ccc(N(C)C)cc2)cc1
2.38
N#Cc1c[nH]c2ccccc12
3

A. COc1ccc(C#Cc2ccc(C#Cc3ccc(P(=O)(c4ccc(C#Cc5ccc(C#Cc6ccc(OC)cc6)cc5)cc4)c4ccc(C#Cc5ccc(C#Cc6ccc(OC)cc6)cc5)cc4)cc3)cc2)cc1
B. NS(=O)(=O)c1ccc(N2N=C(c3ccc(O)cc3)CC2c2ccc(Cl)cc2)cc1 (stereo not given)
Could you kindly indicate whether A or B has the higher fluorescence lifetime value? Use the label to indicate which entry you chose.
B
(B: 2.29 ns, A: 0.69 ns)

---

Protocol Details: solvent given as SMILES
Experimental Parameters: in O
Reported Endpoint: fluorescence lifetime (ns)

I. COc1ccc2ccc([O-])cc2c1
II. [NH3+]c1cc([NH3+])cc(-c2[nH+]c3ccccc3s2)c1
Could you kindly indicate whether I or II has the higher fluorescence lifetime value? Use the label to indicate which entry you chose.
I
(I: 4 ns, II: 0.52 ns)

1. Nc1ccc2cn[nH]c2c1
2. Cc1cc(=O)oc2cc(/[NH+]=C/C=C3/C=C(C(=O)O)NC(C(=O)O)C3)ccc12 (stereo not given)
Looking at 1 and 2 , which one comes out lower in fluorescence lifetime terms? Use the label to indicate which entry you chose.
2
(2: 0.038 ns, 1: 4.4 ns)

---

Protocol Details: solvent given as SMILES
Experimental Parameters: in C1COCCO1
Reported Endpoint: fluorescence lifetime (ns)

Before answering, review these 5 worked examples.
Nc1ccc2c(C(F)(F)F)cc(=O)oc2c1
4.65
CN(C)c1c2ccccc2cc2ccccc12
0.8
CCN(CC)c1ccc2nc3c4ccccc4c(=O)cc-3oc2c1
4.5
COc1ccc(C#Cc2ccc(C#N)cc2)cc1OC
1.09
Cc1cccc2nc3c(=O)[nH]c(=O)[nH]c3nc12
0.5

a. CCOC(=O)C1CC(c2c(C#N)c(C)nn2-c2ccccc2)=CN1c1ccc(Br)cc1 (stereo unspecified)
b. Nc1ccc2c(c1)C(=O)NC2=O
c. Cc1cc(=O)oc2c1cc(Cl)c1occ(C)c12
Arrange these 3 compounds in increasing order of fluorescence lifetime. Hello, could you send the labels back in the order asked? Thank you.
c, a, b
(c: 0.07 ns, a: 5.29 ns, b: 15 ns)

---

Protocol Details: solvent given as SMILES
Experimental Parameters: in ClC(Cl)Cl
Reported Endpoint: fluorescence lifetime (ns)

CCC1(CC)c2cc(B(c3c(C)cc(C)cc3C)c3c(C)cc(C)cc3C)ccc2-c2ccc(N(c3ccccc3)c3ccccc3)cc21
2.2
CN1CCCc2cc(C3=Cc4cccc[n+]4[B-](F)(F)O3)ccc21
3
CN(C)c1ccc(C#Cc2ccc(-c3nc(C#N)c(C#N)n3C)cc2)cc1
1.7
CCCCCCN1C(=O)c2cccc3c(-c4ccc(OC)s4)ccc(c23)C1=O
3.88
Cc1ccc(N(c2ccc(C)cc2)c2ccc(-c3ccc(C=C(C#N)C#N)cc3)cc2)cc1
1.06

a. CCn1c2ccccc2c2cc3c(cc21)c1ccccc1n3CC
b. CC(C)(C)c1ccc(Oc2cc3c4c(cc(Oc5ccc(C(C)(C)C)cc5)c5c6c(Oc7ccc(C(C)(C)C)cc7)cc7c8c(cc(Oc9ccc(C(C)(C)C)cc9)c(c2c45)c86)C(=O)N(c2ccccc2)C7=O)C(=O)N(c2ccccc2)C3=O)cc1
Looking at a and b , which one comes out lower in fluorescence lifetime terms? Use the label to indicate which entry you chose.
a

---

Protocol Details: solvent given as SMILES
Experimental Parameters: in Cc1ccccc1
Reported Endpoint: fluorescence lifetime (ns)
Provide only the numeric value, understood in ns.

Before answering, review these 3 worked examples.
CCc1ccc(-c2nc(-c3ccc(-n4c5ccccc5c5ccccc54)cc3)cc(-c3ccc(-n4c5ccccc5c5ccccc54)cc3)n2)cc1
2.05
c1ccc([B-]2(c3ccccc3)Oc3ccc4ccccc4c3-c3c4ccccc4nc[n+]32)cc1
9.59
CC1(C)c2ccccc2N(c2ccc(-c3nnc(-c4ccccc4)o3)cc2)c2ccccc21
7

Which measured fluorescence lifetime value corresponds to CC(C)(C)c1ccc2c(c1)c1cc(C(C)(C)C)ccc1n2-c1ccc(-c2ccc3c(c2)C(=O)c2ccc(-c4ccc(-n5c6ccc(C(C)(C)C)cc6c6cc(C(C)(C)C)ccc65)cc4)cc2C3=O)cc1 ?
12.6

---

Protocol Details: solvent given as SMILES
Experimental Parameters: in ClC(Cl)Cl
Reported Endpoint: fluorescence lifetime (ns)

1. COC(=O)c1c2ccccc2nc2ccccc12
2. CCCCCCN1C(=O)C(c2ccc(-c3ccc(-n4c5ccccc5c5ccccc54)cc3)cc2)=C(c2ccc(-c3ccc(-n4c5ccccc5c5ccccc54)cc3)cc2)C1=O
3. CCCCN1C(=O)c2ccc3c4ccc5c6c(ccc(c7ccc(c2c37)C1=O)c64)C(=O)N(CCCC)C5=O
4. CCCCCCOc1ccc(N(c2ccc(OCCCCCC)cc2)c2ccc(-c3sc(-c4ccc(N(c5ccc(OCCCCCC)cc5)c5ccc(OCCCCCC)cc5)cc4)c4nc(-c5ccc(C(=O)OC)cc5)c(-c5ccc(C(=O)OC)cc5)nc34)cc2)cc1
Falling order of fluorescence lifetime, please. Hello, could you send the labels back in the order asked? Thank you.
2, 3, 1, 4
(2: 6.4 ns, 3: 3.8 ns, 1: 0.9 ns, 4: 0.58 ns)

I. CCCCCCN1C(=O)c2cccc3cc(/N=C\c4c[nH]c5c4ccc4ccccc45)cc(c23)C1=O
II. CN(C)c1ccc(C2=Cc3c4ccccc4cc[n+]3[B-](F)(F)O2)cc1
III. Cc1ccc(/C2=c3\cc/c(o3)=C(\c3ccc(C)cc3)c3ccc([nH]3)-c3ccc4n3[P-](=O)(=O)[N+]3=C(C=CC3=C4c3ccco3)c3ccc2[nH]3)cc1
Arrange these 3 molecules in increasing order of fluorescence lifetime. Hello, could you send the labels back in the order asked? Thank you.
II, III, I
(II: 2.34 ns, III: 4.2 ns, I: 11.6 ns)

---

Protocol Details: solvent given as SMILES
Experimental Parameters: in C1CCCCC1
Reported Endpoint: fluorescence lifetime (ns)

COc1ccc2c(c1)C(=O)c1cc(OC)cc(OC)c1-2
1.3
Nc1cccnc1
26.5
COc1cc(OC)c2c(c1)C(=O)c1ccc(OC)cc1-2
4.4
CC1=[N+]2C(=C(c3ccccc3C)c3ccc(C)n3[B-]2(F)F)C=C1c1cc2n(c1)[B-](F)(F)[N+]1=CC=CC1=C2c1c(C)cc(C)cc1C
2.84
Cn1nc(-c2ccccc2)c2nc3cc(F)ccc3nc21
23
COc1ccc(-c2nc3ccccc3nc2/C=C/N2CCCC2)s1
0.79
Cc1ccccc1
50
CCC1=C(C)C2=C(C)c3c(I)c(I)c(I)n3[B-](F)(F)[N+]2=C1C
0.331
CN(C)c1ccc(-c2c(/C=C3/C=Cc4ccccc4N3Cc3ccccc3)c(=O)c2=O)cc1
2.19

I. COc1c2ccccc2c(OC)c2c1c1c(F)cccc1n2C
II. COC(=O)c1noc(-c2ccccc2)c1Br
Looking at I and II , which one comes out lower in fluorescence lifetime terms? Use the label to indicate which entry you chose.
II

---

Protocol Details: solvent given as SMILES
Experimental Parameters: in CO
Reported Endpoint: fluorescence lifetime (ns)

Before answering, review these 3 worked examples.
CC1=CC(C)=[N+]2C1=Cc1cccn1[B-]2(F)F
6.34
Cc1nn(-c2ccccc2)c(C2=NN(c3ccc(Br)cc3)[C@@H](c3ccccc3)[C@@H]2c2ccccc2)c1C#N
3.74
Nc1ccc2[nH]ncc2c1
6.4

I. Cc1ccc(C2=C3C=C(I)C=[N+]3[B-](F)(F)n3c2cc(I)c3I)cc1
II. Cc1cc(C)c(C)c(-c2ccc3cc(C)c(=O)oc3c2)c1C
Could you kindly indicate whether I or II has the higher fluorescence lifetime value? Use the label to indicate which entry you chose.
II
(II: 1.43 ns, I: 0.179 ns)

Just for reference, the Deep4Chem optical property database is where these values come from.
